meta.source: patent US9637451B2

biological target: human MT2 receptor (Homo sapiens); construct: expressed in transfected cells; assay: Activation of human MT2 receptor in receptor-expressing cells, intracellular Ca2+ by FLIPR; format: cell-based; conditions: maximum reaction by ramelteon taken as 100%
ENDPOINT_LABEL: Emax

**Q:** Entry CNC(=O)NCCc1c(C)[nH]c2ccc(OCCOc3ccn(C)n3)cc12 [Example 10] has what Emax?
**A:** 117%

**Q:** Entry CC(=O)NC[C@H](C)c1c[nH]c2cc(F)c(OCCOc3ccn(C)n3)cc12 [Example 37] has what Emax?
**A:** 104%

**Q:** Entry CC(=O)NCCc1c[nH]c2ccc(OCCOc3ccn(C)n3)cc12 [Example 2] has what Emax?
**A:** 125%

**Q:** Entry CNC(=O)NCCc1c[nH]c2ccc(OCCOc3cccc(OC)n3)cc12 [Example 53] has what Emax?
**A:** 99%

**Q:** Entry CC(=O)NCCc1c[nH]c2ccc(OCCc3csc(C)n3)cc12 [Example 20] has what Emax?
**A:** 119%

**Q:** Entry CC(=O)NCCc1c[nH]c2cc(F)c(OCCc3csc(C)n3)cc12 [Example 25] has what Emax?
**A:** 96%

**Q:** Entry COc1cccc(OCCOc2ccc3[nH]cc(CCNC(C)=O)c3c2)n1 [Example 54] has what Emax?
**A:** 109%

**Q:** Entry CNC(=O)NCCc1c[nH]c2ccc(OCCc3nc(C)sc3C)cc12 [Example 21] has what Emax?
**A:** 59%

**Q:** Entry CC(=O)NCCc1c[nH]c2ccc(OCCOc3cncc(Br)c3)cc12 [Example 49] has what Emax?
**A:** 119%

**Q:** Entry CC(=O)NCCc1c[nH]c2ccc(OCCOc3ccon3)cc12 [Example 63] has what Emax?
**A:** 105%

**Q:** Entry CCCC(=O)NCCc1c[nH]c2ccc(OCCOc3ccn(C)n3)cc12 [Example 41] has what Emax?
**A:** 93%

**Q:** Entry CC(=O)NCCc1c[nH]c2ccc(OCCOc3ccccn3)cc12 [Example 64] has what Emax?
**A:** 116%

**Q:** Entry CNC(=O)NCCc1c(C)[nH]c2ccc(OCCOc3cnc(OC)c(F)c3)cc12 [Example 48] has what Emax?
**A:** 106%

**Q:** Entry CNC(=O)NCCc1c[nH]c2ccc(OCCOc3cncc(Cl)c3)cc12 [Example 56] has what Emax?
**A:** 125%

**Q:** Entry COc1ccc(OCCOc2cc3c([C@@H](C)CNC(C)=O)c[nH]c3cc2F)cn1 [Example 40] has what Emax?
**A:** 42%

**Q:** Entry CC(=O)NCCc1c[nH]c2ccc(OCCOc3cnccn3)cc12 [Example 3] has what Emax?
**A:** 127%

**Q:** Entry COc1ccc(OCCOc2ccc3[nH]cc(CCNC(C)=O)c3c2)cn1 [Example 5] has what Emax?
**A:** 48%

**Q:** Entry CC(=O)NCC(C)(C)c1c[nH]c2cc(F)c(OCCn3ccc(C)n3)cc12 [Example 36] has what Emax?
**A:** 96%

* * *

Molecular target: human MT2 receptor (Homo sapiens, UniProt P49286)
Sequence (P49286 1-362): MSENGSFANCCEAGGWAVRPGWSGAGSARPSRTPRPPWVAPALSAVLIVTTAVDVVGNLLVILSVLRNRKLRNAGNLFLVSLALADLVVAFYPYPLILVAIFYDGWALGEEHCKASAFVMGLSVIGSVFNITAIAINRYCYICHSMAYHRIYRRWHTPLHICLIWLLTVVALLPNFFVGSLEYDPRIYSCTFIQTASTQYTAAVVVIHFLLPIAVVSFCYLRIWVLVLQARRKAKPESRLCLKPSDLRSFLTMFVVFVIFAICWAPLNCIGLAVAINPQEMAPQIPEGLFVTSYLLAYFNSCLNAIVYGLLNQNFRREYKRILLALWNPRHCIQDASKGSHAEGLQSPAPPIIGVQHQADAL
Assay: Activation of human MT2 receptor in receptor-expressing cells, intracellular Ca2+ by FLIPR
Details: HEK293 cells stably expressing human MT2 and Gq/i chimeric G protein; Ca2+ FLIPR
ENDPOINT_LABEL: EC50 (nM)
Express the result in nM but write the number alone.

**Q:** What is its EC50 for human MT2 receptor (Homo sapiens, UniProt P49286)? Entry: CNC(=O)NCCc1c(C)[nH]c2ccc(OCCOc3ccc(OC)nc3)cc12 [Example 31]
**A:** 28
